Recorded viability, T/C by entry
# Tested on: 475296-252-R-J1-PDC spheroid viability;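 further: spheroids exposed to agents for seven days before readout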
# PROTOCOL TEXT: Anticancer human tumor 475296-252-R-J1-PDC patient-derived rectal carcinoma cell line growth inhibition [PI3K]
# RUN CONDITIONS: second compound 0.00316 µM; first compound 0.0316 µM; stronger effect = lower value; spheroids with HUVEC and MSC
Give the value in % but do not write % after it.

Past entries and their recorded results:
What value of measured viability, T/C is listed for C=CC(=O)N1CCN(c2nc(=O)n(-c3c(C)ccnc3C(C)C)c3nc(-c4c(O)cccc4F)c(F)cc23)C(C)C1 (stereo unspecified) + CC(Nc1ccc2c(c1)OCCn1cc(N3C(=O)OCC3C(F)F)nc1-2)C(N)=O ? 83.8

Please do the same for Cn1ncnc1[C@H]1c2n[nH]c(=O)c3cc(F)cc(c23)N[C@@H]1c1ccc(F)cc1 + COc1c(OCCCN2CCOCC2)ccc2c3n(c(=NC(=O)c4cnc(N)nc4)nc12)CCN3 as well. 116

Please do the same for Cn1nccc1Nc1nccc(-c2ccn(C(CO)c3ccc(Cl)c(F)c3)c(=O)c2)n1 (stereo unspecified) + COc1c(OCCCN2CCOCC2)ccc2c3n(c(=NC(=O)c4cnc(N)nc4)nc12)CCN3 as well. 88.1

***
What value of measured viability, T/C is listed for C[C@@H](NC(=O)c1ncnc(N)c1Cl)c1ncc(C(=O)Nc2cc(C(F)(F)F)c(Cl)cn2)s1 + CC(Nc1ccc2c(c1)OCCn1cc(N3C(=O)OCC3C(F)F)nc1-2)C(N)=O ? 98.9

Please do the same for CCCS(=O)(=O)Nc1ccc(F)c(C(=O)c2c[nH]c3ncc(-c4ccc(Cl)cc4)cc23)c1F + COc1c(OCCCN2CCOCC2)ccc2c3n(c(=NC(=O)c4cnc(N)nc4)nc12)CCN3 as well. 102

Please do the same for Cn1ncnc1[C@H]1c2n[nH]c(=O)c3cc(F)cc(c23)N[C@@H]1c1ccc(F)cc1 + CC(Nc1ccc2c(c1)OCCn1cc(N3C(=O)OCC3C(F)F)nc1-2)C(N)=O as well. 97.2

Please do the same for CC(Cn1ccc(-c2ccc(C#N)c(Cl)c2)n1)NC(=O)c1cc(C(C)O)[nH]n1 (stereo unspecified) + CC(Nc1ccc2c(c1)OCCn1cc(N3C(=O)OCC3C(F)F)nc1-2)C(N)=O as well. 110

Please do the same for CC1(C)CCC(Nc2ncc(C(F)(F)F)c(-c3c[nH]c4c(P(C)(C)=O)c(C#N)ccc34)n2)CN1 (stereo unspecified) + COc1c(OCCCN2CCOCC2)ccc2c3n(c(=NC(=O)c4cnc(N)nc4)nc12)CCN3 as well. 91.7

Please do the same for CC(=O)c1c(C)c2cnc(Nc3ccc(N4CCNCC4)cn3)nc2n(C2CCCC2)c1=O + COc1c(OCCCN2CCOCC2)ccc2c3n(c(=NC(=O)c4cnc(N)nc4)nc12)CCN3 as well. 113

Please do the same for Cn1ncc(Cl)c1-c1cc(C(=O)NC(CN)Cc2cccc(F)c2)sc1Cl (stereo unspecified) + COc1c(OCCCN2CCOCC2)ccc2c3n(c(=NC(=O)c4cnc(N)nc4)nc12)CCN3 as well. 86.5

Please do the same for C=CC(=O)N1CCN(c2nc(=O)n(-c3c(C)ccnc3C(C)C)c3nc(-c4c(O)cccc4F)c(F)cc23)C(C)C1 (stereo unspecified) + COc1c(OCCCN2CCOCC2)ccc2c3n(c(=NC(=O)c4cnc(N)nc4)nc12)CCN3 as well. 102
